Source: the supplement of paper PMC10307832

- System: LC-2-ad
- protocolNotes: relative viability (nuclei count vs DMSO), 5 days (fraction); higher = more cells survive
- testParameters: first compound 0.05 µM
parameter: relative viability
Quick one: just the number, no unit, thanks!

Field: example entries. Status: answers known.
COc1cc2nccc(Oc3ccc(NC(=O)Nc4cc(C)on4)c(Cl)c3)c2cc1OC [Tivozanib] + CC(=O)c1c(C)c2cnc(Nc3ccc(N4CCNCC4)cn3)nc2n(C2CCCC2)c1=O [Palbociclib] (partner 0.5 µM) = 0.478
Nc1ccn([C@@H]2O[C@H](CO)[C@@H](O)[C@@H]2O)c(=O)n1 [Cytarabine] + O=C(CCCCCCC(=O)Nc1ccccc1)NO [Vorinostat] (partner 1 µM) = 0.67
COc1cc2nccc(Oc3ccc(NC(=O)Nc4cc(C)on4)c(Cl)c3)c2cc1OC [Tivozanib] + CS(=O)(=O)CCNCc1ccc(-c2ccc3ncnc(Nc4ccc(OCc5cccc(F)c5)c(Cl)c4)c3c2)o1 [Lapatinib] (partner 2 µM) = 0.856
COc1cc2nccc(Oc3ccc(NC(=O)Nc4cc(C)on4)c(Cl)c3)c2cc1OC [Tivozanib] + CCNC(=O)c1noc(-c2cc(C(C)C)c(O)cc2O)c1-c1ccc(CN2CCOCC2)cc1 [Luminespib] (partner 0.01 µM) = 0.993
COc1cc2nccc(Oc3ccc(NC(=O)Nc4cc(C)on4)c(Cl)c3)c2cc1OC [Tivozanib] + O=C(CCCCCCC(=O)Nc1ccccc1)NO [Vorinostat] (partner 1 µM) = 0.694

For this compound ( Nc1ccn([C@@H]2O[C@H](CO)[C@@H](O)[C@@H]2O)c(=O)n1 [Cytarabine] + Nc1ncn([C@H]2C[C@H](O)[C@@H](CO)O2)c(=O)n1 [Decitabine] (partner 2 µM) ), measured relative viability is 0.759

For this compound ( Nc1ccn([C@@H]2O[C@H](CO)[C@@H](O)[C@@H]2O)c(=O)n1 [Cytarabine] + NC(=O)Nc1cc(-c2cccc(F)c2)sc1C(=O)N[C@H]1CCCNC1 [AZD7762] (partner 0.2 µM) ), measured relative viability is 0.674

For this compound ( Nc1ccn([C@@H]2O[C@H](CO)[C@@H](O)[C@@H]2O)c(=O)n1 [Cytarabine] + N=C(N)NC(=N)NCCc1ccccc1 [Phenformin] (partner 250 µM) ), measured relative viability is 0.49

For this compound ( Nc1ccn([C@@H]2O[C@H](CO)[C@@H](O)[C@@H]2O)c(=O)n1 [Cytarabine] + O=C(c1cc(Cc2n[nH]c(=O)c3ccccc23)ccc1F)N1CCN(C(=O)C2CC2)CC1 [Olaparib] (partner 8 µM) ), measured relative viability is 0.65

For this compound ( Nc1ccn([C@@H]2O[C@H](CO)[C@@H](O)[C@@H]2O)c(=O)n1 [Cytarabine] + C[C@]1(O)C[C@@H](c2nc(-c3ccc4ccc(-c5ccccc5)nc4c3)c3c(N)nccn32)C1 [Linsitinib] (partner 1 µM) ), measured relative viability is 0.677

###

relative viability by entry:
- Tested on: UMC-11
- protocolNotes: relative viability (nuclei count vs DMSO), 5 days (fraction); higher = more cells survive
- testParameters: first compound 0.253 µM
Quick one: just the number, no unit, thanks!

Field: example entries. Status: answers known.
Cc1cnc(-c2cnc(NCCNc3ccc(C#N)cn3)nc2-c2ccc(Cl)cc2Cl)[nH]1 + O=C(CCCCCCC(=O)Nc1ccccc1)NO [Vorinostat] (partner 1 µM) = 0.387
O=c1[nH]c2ccccc2n1C1CCN(CCCC(c2ccc(F)cc2)c2ccc(F)cc2)CC1 [Pimozide] + O=C(c1cc(Cc2n[nH]c(=O)c3ccccc23)ccc1F)N1CCN(C(=O)C2CC2)CC1 [Olaparib] (partner 8 µM) = 0.356
O=c1[nH]c2ccccc2n1C1CCN(CCCC(c2ccc(F)cc2)c2ccc(F)cc2)CC1 [Pimozide] + CC(=O)Nc1cccc(-n2c(=O)n(C3CC3)c(=O)c3c(Nc4ccc(I)cc4F)n(C)c(=O)c(C)c32)c1 [Trametinib] (partner 0.02 µM) = 0.675

For this molecule ( O=c1[nH]c2ccccc2n1C1CCN(CCCC(c2ccc(F)cc2)c2ccc(F)cc2)CC1 [Pimozide] + COc1cccc2cc(-c3nc([C@H]4CC[C@H](C(=O)O)CC4)n4ncnc(N)c34)[nH]c12 [OSI-027] (partner 0.5 µM) ), measured relative viability is 0.421

For this molecule ( Cc1cnc(-c2cnc(NCCNc3ccc(C#N)cn3)nc2-c2ccc(Cl)cc2Cl)[nH]1 + COc1cccc2cc(-c3nc([C@H]4CC[C@H](C(=O)O)CC4)n4ncnc(N)c34)[nH]c12 [OSI-027] (partner 0.5 µM) ), measured relative viability is 0.477

For this molecule ( O=c1[nH]c2ccccc2n1C1CCN(CCCC(c2ccc(F)cc2)c2ccc(F)cc2)CC1 [Pimozide] + Cc1nc(NC(=O)N2CCC[C@H]2C(N)=O)sc1-c1ccnc(C(C)(C)C(F)(F)F)c1 [Alpelisib] (partner 2 µM) ), measured relative viability is 0.967

For this molecule ( O=c1[nH]c2ccccc2n1C1CCN(CCCC(c2ccc(F)cc2)c2ccc(F)cc2)CC1 [Pimozide] + C[C@@H](Oc1cc(-c2cnn(C3CCNCC3)c2)cnc1N)c1c(Cl)ccc(F)c1Cl [Crizotinib] (partner 1 µM) ), measured relative viability is 0.618

###

- Test system: NCI-H322M
- protocolNotes: relative viability (nuclei count vs DMSO), 5 days (fraction); higher = more cells survive
- testParameters: first compound 1.265 µM
parameter: relative viability
Quick one: just the number, no unit, thanks!

Cc1sc2c(c1C)C(c1ccc(Cl)cc1)=N[C@@H](CC(=O)OC(C)(C)C)c1nnc(C)n1-2 [JQ1] + Nc1nc2[nH]cc(CCc3ccc(C(=O)N[C@@H](CCC(=O)O)C(=O)O)cc3)c2c(=O)[nH]1 [Pemetrexed] (partner 0.2 µM) = 0.495

Could you now look at the following molecule, please?
For this molecule ( Cc1sc2c(c1C)C(c1ccc(Cl)cc1)=N[C@@H](CC(=O)OC(C)(C)C)c1nnc(C)n1-2 [JQ1] + CC(=O)c1c(C)c2cnc(Nc3ccc(N4CCNCC4)cn3)nc2n(C2CCCC2)c1=O [Palbociclib] (partner 0.5 µM) ), measured relative viability is 0.385

###

- Test system: NCI-H460
- protocolNotes: relative viability (nuclei count vs DMSO), 5 days (fraction); higher = more cells survive
- testParameters: first compound 0.05 µM
relative viability by entry:

COc1cc2nccc(Oc3ccc(NC(=O)Nc4cc(C)on4)c(Cl)c3)c2cc1OC [Tivozanib] + COc1cccc2cc(-c3nc([C@H]4CC[C@H](C(=O)O)CC4)n4ncnc(N)c34)[nH]c12 [OSI-027] (partner 0.5 µM) = 0.727

Could you now look at the following compound, please?
For this compound ( COc1cc2nccc(Oc3ccc(NC(=O)Nc4cc(C)on4)c(Cl)c3)c2cc1OC [Tivozanib] + CC(=O)c1c(C)c2cnc(Nc3ccc(N4CCNCC4)cn3)nc2n(C2CCCC2)c1=O [Palbociclib] (partner 0.5 µM) ), measured relative viability is 0.141

###

- System: NCI-H650
- protocolNotes: relative viability (nuclei count vs DMSO), 5 days (fraction); higher = more cells survive
- testParameters: first compound 8 µM
parameter: relative viability
Quick one: just the number, no unit, thanks!

Field: example entries. Status: answers known.
O=c1[nH]c2ccccc2n1C1CCN(CCCC(c2ccc(F)cc2)c2ccc(F)cc2)CC1 [Pimozide] + CS(=O)(=O)N1CCN(Cc2cc3nc(-c4cccc5[nH]ncc45)nc(N4CCOCC4)c3s2)CC1 [Pictilisib] (partner 1 µM) = 1.09
O=c1[nH]c2ccccc2n1C1CCN(CCCC(c2ccc(F)cc2)c2ccc(F)cc2)CC1 [Pimozide] + O=C(c1cc(Cc2n[nH]c(=O)c3ccccc23)ccc1F)N1CCN(C(=O)C2CC2)CC1 [Olaparib] (partner 8 µM) = 0.408
O=c1[nH]c2ccccc2n1C1CCN(CCCC(c2ccc(F)cc2)c2ccc(F)cc2)CC1 [Pimozide] + Cc1cc(Nc2cc(N3CCN(C)CC3)nc(Sc3ccc(NC(=O)C4CC4)cc3)n2)n[nH]1 [Tozasertib] (partner 0.1 µM) = 0.782

Could you now look at the following compound, please?
// returns relative viability for O=c1[nH]c2ccccc2n1C1CCN(CCCC(c2ccc(F)cc2)c2ccc(F)cc2)CC1 [Pimozide] + C[C@]1(O)C[C@@H](c2nc(-c3ccc4ccc(-c5ccccc5)nc4c3)c3c(N)nccn32)C1 [Linsitinib] (partner 1 µM) with NCI-H650; value = 0.847

###

- Test system: NCI-H1355
- protocolNotes: relative viability (nuclei count vs DMSO), 5 days (fraction); higher = more cells survive
- testParameters: first compound 4 µM
parameter: relative viability
Quick one: just the number, no unit, thanks!

Cc1sc2c(c1C)C(c1ccc(Cl)cc1)=N[C@@H](CC(=O)OC(C)(C)C)c1nnc(C)n1-2 [JQ1] + Cc1nc(NC(=O)N2CCC[C@H]2C(N)=O)sc1-c1ccnc(C(C)(C)C(F)(F)F)c1 [Alpelisib] (partner 2 µM) = 0.438
Cc1sc2c(c1C)C(c1ccc(Cl)cc1)=N[C@@H](CC(=O)OC(C)(C)C)c1nnc(C)n1-2 [JQ1] + COc1cc2c(Oc3ccc(NC(=O)C4(C(=O)Nc5ccc(F)cc5)CC4)cc3F)ccnc2cc1OCCCN1CCOCC1 [Foretinib] (partner 0.25 µM) = 0.562

For this molecule ( Cc1sc2c(c1C)C(c1ccc(Cl)cc1)=N[C@@H](CC(=O)OC(C)(C)C)c1nnc(C)n1-2 [JQ1] + Nc1ncn([C@H]2C[C@H](O)[C@@H](CO)O2)c(=O)n1 [Decitabine] (partner 2 µM) ), measured relative viability is 0.249

For this molecule ( Cc1sc2c(c1C)C(c1ccc(Cl)cc1)=N[C@@H](CC(=O)OC(C)(C)C)c1nnc(C)n1-2 [JQ1] + CC(=O)c1c(C)c2cnc(Nc3ccc(N4CCNCC4)cn3)nc2n(C2CCCC2)c1=O [Palbociclib] (partner 0.5 µM) ), measured relative viability is 0.233
